experiment: Absorbability through the gut, oral, aqueous and non-aqueous dispersing solvents, plasma concentration in rats (Test Example 5); format: in vivo, Wistar male rats; details: rat, plasma, po, 20 mg/kg, 5% (w/v) sucrose fatty acid ester/refined sesame oil, oral 20 mg/kg, 1 hr
QUANTITY_NAME: concentration at 1 h (ng/mL)
Report the value in ng/mL with no unit label.

concentration at 1 h lookup needed for O=C(NC(=O)c1ccccc1[N+](=O)[O-])Nc1ccc(Oc2ncc(Br)cn2)c(Cl)c1 [Compound No. 3] , thanks.
140

----------
assay: Absorbability through the gut, oral, aqueous and non-aqueous dispersing solvents, plasma concentration in rats (Test Example 5); assay type: in vivo, Wistar male rats; conditions: rat, plasma, po, 20 mg/kg, 10% (w/v) sucrose fatty acid ester, oral 20 mg/kg, 3 hrs
QUANTITY_NAME: concentration at 3 h (ng/mL)
Report the value in ng/mL with no unit label.

concentration at 3 h lookup needed for O=C(NC(=O)c1ccccc1[N+](=O)[O-])Nc1ccc(Oc2ncc(Br)cn2)c(Cl)c1 [Compound No. 3] , thanks.
180

----------
assay: Absorbability through the gut, oral, aqueous and non-aqueous dispersing solvents, plasma concentration in rats (Test Example 5); type: in vivo, Wistar male rats; details: rat, plasma, po, 20 mg/kg, 10% (w/v) sucrose fatty acid ester, oral 20 mg/kg, 1 hr
QUANTITY_NAME: concentration at 1 h (ng/mL)
Report the value in ng/mL with no unit label.

concentration at 1 h lookup needed for O=C(NC(=O)c1ccccc1[N+](=O)[O-])Nc1ccc(Oc2ncc(Br)cn2)c(Cl)c1 [Compound No. 3] , thanks.
40

----------
test: Rectal suppository, plasma concentration in rats (Test Example 6); format: in vivo, Wistar male rat; settings: rat, plasma, 1.8 mg, control suppository without cyclodextrin, rectal, 0.5 hr
QUANTITY_NAME: concentration at 0.5 h (ng/mL)
Report the value in ng/mL with no unit label.

concentration at 0.5 h lookup needed for O=C(NC(=O)c1ccccc1[N+](=O)[O-])Nc1ccc(Oc2ncc(Br)cn2)c(Cl)c1 , thanks.
40

----------
test: Solubility of Compound No. 3 in aqueous cyclodextrin solutions or polyethylene glycol 400 at 25° C. (Test Example 2); type: physicochemical; settings: aqueous dimethyl α-type cyclodextrin, dimethyl α-type cyclodextrin 17.5 mg/ml, aqueous
QUANTITY_NAME: solubility

solubility lookup needed for O=C(NC(=O)c1ccccc1[N+](=O)[O-])Nc1ccc(Oc2ncc(Br)cn2)c(Cl)c1 [Compound No. 3] , thanks.
0.294 µg/mL

----------
test: Absorbability through the gut, oral, aqueous and non-aqueous dispersing solvents, plasma concentration in rats (Test Example 5); format: in vivo, Wistar male rats; conditions: rat, plasma, po, 20 mg/kg, medium-chain length fatty acid triglyceride (ODO), oral 20 mg/kg, 3 hrs
QUANTITY_NAME: concentration at 3 h (ng/mL)
Report the value in ng/mL with no unit label.

concentration at 3 h lookup needed for O=C(NC(=O)c1ccccc1[N+](=O)[O-])Nc1ccc(Oc2ncc(Br)cn2)c(Cl)c1 , thanks.
170

----------
assay: Absorbability through the gut, oral, aqueous and non-aqueous dispersing solvents, plasma concentration in rats (Test Example 5); assay type: in vivo, Wistar male rats; details: rat, plasma, po, 20 mg/kg, medium-chain length fatty acid triglyceride (ODO), oral 20 mg/kg, 5 hrs
QUANTITY_NAME: concentration at 5 h

concentration at 5 h lookup needed for O=C(NC(=O)c1ccccc1[N+](=O)[O-])Nc1ccc(Oc2ncc(Br)cn2)c(Cl)c1 , thanks.
0.21 µg/mL
